B1: library; a variant is named by its letters at N, in order (parent)
chain: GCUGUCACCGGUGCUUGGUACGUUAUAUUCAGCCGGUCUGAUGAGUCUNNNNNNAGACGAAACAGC

Variants of: B1
Experiment: normalized RNA/DNA level without ligand (relative to sTRSVctl = 100) (log10 (% of sTRSVctl)); HEK293T overexpressing SLC46A1; higher = less ribozyme self-cleavage, higher mRNA level
Conditions: without (6R,S)-folinic acid; ligand present: no
observed-property: normalized RNA/DNA level without ligand (log10)
Lab note: write the figure by itself, no unit.

Some variants with known normalized RNA/DNA level without ligand (log10) results, for comparison:
{"columns": ["variant-key", "recorded-number"],
 "data": [
  ["CAGUUA", 1.95],
  ["CUCCCC", 2.02],
  ["CCGGGU", 2.07]
]}

Task item: Tell me the measured normalized RNA/DNA level without ligand (log10) of `CGCAGG` , please.
Reply: 1.95

Task item: Consider next the variant `ACUAUU` in the same way.
Reply: 2.03

Task item: Same question for `UAUAAG` please.
Reply: 1.69

Task item: Would you mind doing `GUAUCA` as well?
Reply: 2.05

Task item: Try `AGGAGC` next.
Reply: 1.99

Task item: And the next one, `GAGUGA` ?
Reply: 1.96

Task item: Please give the result for `AUCUAG` too.
Reply: 1.97

Task item: Lookup `AGUCCU`
Reply: 2.05

Task item: Again, but for `UGUGAC`
Reply: 1.95
